# system under test: human H1 receptor (Homo sapiens, UniProt P35367)
# Construct: purchased Euroscreen SA, Brussels, Belgium ES-390-M; host or cells: recombinant CHO-K1 cells (membranes)
# Sequence (P35367 whole entry): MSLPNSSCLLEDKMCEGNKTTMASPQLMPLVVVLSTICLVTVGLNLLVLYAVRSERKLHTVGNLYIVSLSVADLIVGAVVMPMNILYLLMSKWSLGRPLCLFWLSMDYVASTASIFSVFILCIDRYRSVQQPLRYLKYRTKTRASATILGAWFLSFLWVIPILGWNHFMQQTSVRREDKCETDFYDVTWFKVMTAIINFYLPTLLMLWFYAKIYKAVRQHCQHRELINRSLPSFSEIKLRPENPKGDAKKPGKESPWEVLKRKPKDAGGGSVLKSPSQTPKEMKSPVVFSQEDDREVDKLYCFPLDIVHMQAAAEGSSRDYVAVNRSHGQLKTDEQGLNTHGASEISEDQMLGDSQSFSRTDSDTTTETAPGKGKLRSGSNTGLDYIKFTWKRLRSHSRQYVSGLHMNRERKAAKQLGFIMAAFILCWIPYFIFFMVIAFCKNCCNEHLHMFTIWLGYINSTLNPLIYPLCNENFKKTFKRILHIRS
# protocol text: Histamine H1 receptor binding, displacement of [3H]-pyrilamine
# test parameters: 1 nM [3H]-pyrilamine; membranes of recombinant CHO-K1 cells expressing human H1 receptor; read-out: H1 pKi/[1328_S] (converted)
reported endpoint: Ki (nM)

molecule: COC(=O)CN1CCC(CN2CCC(Oc3ccc(Cl)cc3C)CC2)CC1
reported endpoint: Ki
test value: 126

(1) Cc1ccccc1C(C(=O)O)N1CCC(CN2CCC(Oc3ccc(Cl)c(C)c3Cl)CC2)CC1 (stereo not shown)
(2) Cc1ccc(C(C(=O)O)N2CCC(O)(CN3CCC(Oc4ccc(Cl)c(Cl)c4)CC3)CC2)cc1 (stereo not shown)
(3) Cc1c(Cl)ccc(OC2CCN(CC3CCN(CC(=O)O)CC3)CC2)c1Cl
# input Kindly order the items shown according to Ki, from the highest value down. // rank by listing labels in the order requested
# output 3, 1, 2
(3: 200 nM, 1: 50.1 nM, 2: 15.8 nM)
